Target: hPXR (Homo sapiens (Human))
Test: cell-based hPXR agonistic assay
Conditions: at 10 μM; rifampicin at 10 μM as 100% activation, DMSO (0.3%) as 0%
property: Agonist (% activation at 10 μM)

>>> reported("CCC[C@H](CC)Oc1ccc(C(=O)N2CCN(C(C)=O)CC2)cc1NC(=O)c1nnn(-c2cc(OC)ccc2OC)c1C")
"(29 ± 4)%"
>>> reported("COc1ccc(-n2nnc(C(=O)Nc3ccc(N)c(C(C)(C)C)c3)c2C)cc1")
"(29 ± 4)%"

====

Target: hPXR (Homo sapiens (Human), UniProt O75469)
Sequence (O75469 whole entry): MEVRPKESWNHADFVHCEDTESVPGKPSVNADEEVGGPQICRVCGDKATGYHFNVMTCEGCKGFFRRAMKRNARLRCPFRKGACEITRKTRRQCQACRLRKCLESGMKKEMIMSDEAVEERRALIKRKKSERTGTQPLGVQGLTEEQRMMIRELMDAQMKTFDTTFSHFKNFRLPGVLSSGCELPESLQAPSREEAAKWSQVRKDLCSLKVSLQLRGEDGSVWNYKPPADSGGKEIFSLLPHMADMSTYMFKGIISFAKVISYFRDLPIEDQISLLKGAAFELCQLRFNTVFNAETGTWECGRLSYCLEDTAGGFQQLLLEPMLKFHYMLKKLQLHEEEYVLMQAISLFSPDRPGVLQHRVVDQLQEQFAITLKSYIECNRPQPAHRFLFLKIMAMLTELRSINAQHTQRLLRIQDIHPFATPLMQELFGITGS
Experiment: cell-based hPXR inverse agonistic assay
Conditions: read-out: Inverse agonist (% inhibition at 10 μM)
property: inhibition at 10 µM (%)

Completed entries (count: 2):
>>> reported("COc1ccc(OC)c(-n2nnc(C(=O)Nc3cc(OCCCCCCCCCl)cc(C(C)(C)C)c3)c2C)c1")
53
>>> reported("COc1ccc(Cl)cc1-n1nnc(C(=O)Nc2cc(C(C)(C)C)cc(C(C)(C)C)c2)c1C")
93

1 = COCCOCCOCCOCCOc1cc(NC(=O)c2nnn(-c3cc(OC)ccc3OC)c2C)cc(C(C)(C)C)c1
2 = COc1ccc(OC)c(-n2nnc(C(=O)Nc3cccc(N4CCCCC4)c3)c2C)c1
When 1 and 2 are compared, which has the higher number for inhibition at 10 µM? Response format: the label of the selected entry.
1
(1: 91%, 2: 36%)

A = COc1ccc(OC)c(-n2nnc(C(=O)Nc3cc(OCCCN4CCN(C)CC4)cc(C(C)(C)C)c3)c2C)c1
B = COc1ccc(OC)c(-n2nnc(C(=O)Nc3ccnc(C(C)(C)C)c3)c2C)c1
Smaller inhibition at 10 µM value, A vs B ? Bench note: the answer is the label of the chosen record.
B

P = CCOc1ccc(C(C)(C)C)cc1NC(=O)c1nnn(-c2cc(OC)ccc2OC)c1C
Q = COc1ccc(OC)c(-n2nnc(C(=O)Nc3cc(C)ccc3OC)c2C)c1
Quick one: lower inhibition at 10 µM, P or Q ? State the label of the item chosen.
Q

====

molecules and their reported EC50
Molecular target: hPXR (Homo sapiens (Human), UniProt O75469)
Assay: cell-based hPXR agonistic assay

// known answers, use as guide
>>> reported("COc1ccc(-n2nnc(C(=O)Nc3cccc(C(C)(C)C)c3)c2C)cc1")
"4.05 µM"
>>> reported("COc1ccc(OC)c(-n2nnc(C(=O)Nc3ccc(CN4CCN(C)CC4)c(C(F)(F)F)c3)c2C)c1")
"> 30 µM"
>>> reported("COc1ccc(OC)c(-n2nnc(C(=O)Nc3ccc(CN4CCN(C)CC4)cc3)c2C)c1")
"> 30 µM"
>>> reported("COc1ccc(OC)c(-n2nnc(C(=O)Nc3cc(N(C)C)cc(C(C)(C)C)c3)c2C)c1")
"> 30 µM"

Item under review: `COc1ccc(-n2nnc(C(=O)Nc3ccccc3)c2C)cc1` . Reported EC50?
> 30 µM

Which EC50 is reported for this molecule? `COc1ccc(C)cc1-n1nnc(C(=O)Nc2cc(O)cc(C(C)(C)C)c2)c1C`
> 30 µM

Entry under review: `COC(=O)CCCOc1cc(NC(=O)c2nnn(-c3cc(OC)ccc3OC)c2C)cc(C(C)(C)C)c1` . Reported EC50?
> 30 µM

Which measured EC50 value corresponds to `CCC[C@H](CC)Oc1ccc(C(C)(C)C)cc1NC(=O)c1nnn(-c2cc(C)c(OC)cc2OC)c1C` ?
0.0066 µM

Could you tell me which EC50 is on file for `COc1ccc(-n2nnc(C(=O)Nc3cccc(C)c3)c2C)cc1` ?
> 30 µM

====

Target: hPXR (Homo sapiens (Human), UniProt O75469)
Test: hPXR binding assay
Conditions: read-out: Binding (IC50/μM); hPXR binding assay
property: IC50 (µM)

Worked cases, answers included:
>>> reported("COc1ccc(OC)c(-n2nnc(C(=O)Nc3cc(C(C)(C)C)ccc3O)c2C)c1")
2.33
>>> reported("CCOc1cc(NC(=O)c2nnn(-c3cc(OC)ccc3OC)c2C)nc(OCC)n1")
12.6
>>> reported("COc1ccc(OC)c(-n2nnc(C(=O)Nc3cc(N(C)C)cc(C(C)(C)C)c3)c2C)c1")
0.27
>>> reported("COc1ccc(OC)c(-n2nnc(C(=O)Nc3cc(NCC(=O)O)cc(C(C)(C)C)c3)c2C)c1")
3.53

A = COc1cc(NC(=O)c2nnn(-c3cc(Cl)ccc3OC)c2C)cc(C(C)(C)C)c1
B = CCCCCCCCOc1cc(NC(=O)c2nnn(-c3cc(OC)ccc3OC)c2C)cc(C(C)(C)C)c1
C = CCC[C@H](CC)Oc1ccccc1NC(=O)c1nnn(-c2cc(OC)ccc2OC)c1C
D = CCCCN(CCCC)c1cc(NC(=O)c2nnn(-c3cc(OC)ccc3OC)c2C)cc(C(C)(C)C)c1
E = COc1ccc(-n2nnc(C(=O)Nc3ccc(NC(C)=O)c(C(C)(C)C)c3)c2C)cc1 [E2]
Hey, quick one: sort these by IC50, low to high? Thanks in advance for listing the labels in the requested order.
C, A, D, B, E
(C: 0.013 µM, A: 0.14 µM, D: 0.5 µM, B: 1 µM, E: 6.94 µM)

====

Target: hPXR (Homo sapiens (Human))
Experiment: cell-based hPXR agonistic assay
Details: read-out: Agonist (EC50/μM); cell-based hPXR agonistic assay
property: EC50 (µM)

>>> reported("CCCCOc1ccc(C(C)(C)C)cc1NC(=O)c1nnn(-c2cccnc2)c1C")
4.28
>>> reported("CCCCOc1ccc(C(C)(C)C)cc1NC(=O)c1nnn(-c2c(OC)cccc2OC)c1C")
0.24
>>> reported("CCCCOc1ccc(C(C)(C)C)cc1NC(=O)c1nnn(-c2ccc3c(c2)OCO3)c1C")
4.61

A = COc1ccc(OC)c(-n2nnc(C(=O)Nc3cc(C(C)(C)C)ccc3N)c2C)c1
B = COc1ccc(OC)c(-n2nnc(C(=O)Nc3cccc(C)c3)c2C)c1
C = COc1ccc(OC)c(-n2nnc(C(=O)Nc3ccc(N)c(C(C)(C)C)c3)c2C)c1
Ascending by EC50, please: list the molecules accordingly. Write the labels out in the order the request specifies.
C, A, B

P = CCCCOc1ccc(C(C)(C)C)cc1NC(=O)c1nnn(-c2cc(OC)ccc2F)c1C
Q = CCCCOc1ccc(C(C)(C)C)cc1NC(=O)c1nnn(-c2cc(OC)cc(OC)c2)c1C
Could you please tell me which of these two has the higher EC50: P or Q ? // respond with label for picked entry
Q

====

Biological target: hPXR (Homo sapiens (Human), UniProt O75469)
Assay: cell-based hPXR inverse agonistic assay
Conditions: read-out: Inverse agonist (% inhibition at 10 μM)
property: inhibition at 10 µM (%)

>>> reported("CCC(C)Oc1ccc(C(C)(C)C)cc1NC(=O)c1nnn(-c2cc(OC)ccc2OC)c1C (centres unmarked) [B26]")
111
>>> reported("COc1ccc(Cl)cc1-n1nnc(C(=O)Nc2cc(O)cc(C(C)(C)C)c2)c1C [F4]")
101
>>> reported("CCC[C@H](CC)Oc1ccc(C(=O)N2CCN(C)CC2)cc1NC(=O)c1nnn(-c2cc(OC)ccc2OC)c1C [M6]")
112
>>> reported("CCCC(CCC)Oc1ccc(C(C)(C)C)cc1NC(=O)c1nnn(-c2cc(OC)ccc2OC)c1C [B33]")
103
>>> reported("COc1ccc(OC)c(-n2nnc(C(=O)Nc3cc(NCC(=O)OC(C)(C)C)cc(C(C)(C)C)c3)c2C)c1 [D8]")
127

I = CCC[C@H](CC)Oc1ccc(C(=O)Nc2ccc(N3CCN(C(C)=O)CC3)cc2)cc1NC(=O)c1nnn(-c2cc(OC)ccc2OC)c1C [M8]
II = COc1ccc(C)cc1-n1nnc(C(=O)Nc2cc(N)cc(C(C)(C)C)c2)c1C [G5]
Response body: label of entry with the larger inhibition at 10 µM; valid values I , II . Reply briefly: the label of your chosen item.
I
(I: 93%, II: 47%)

====

Biological target: hPXR (Homo sapiens (Human))
Assay: hPXR binding assay
Conditions: read-out: Binding (IC50/μM); hPXR binding assay
property: IC50 (µM)

Reference set, count: 6
>>> reported("COc1ccc(OC)c(-n2nnc(NS(=O)(=O)c3ccc(C(C)(C)C)cc3)c2C)c1")
0.33
>>> reported("CCC(C)Oc1ccc(C(C)(C)C)cc1NC(=O)c1nnn(-c2ccccc2OC)c1C (centres unmarked)")
0.0085
>>> reported("COc1ccc(OC)c(-n2nnc(C(=O)Nc3cc(OCCCCCCCC=O)cc(C(C)(C)C)c3)c2C)c1")
1.13
>>> reported("CCCOc1ccc(C(C)(C)C)cc1NC(=O)c1nnn(-c2cc(OC)ccc2OC)c1C")
0.027
>>> reported("COc1ccc(OC)c(-n2nnc(C(=O)Nc3cccc(-n4cccc4)c3)c2C)c1")
1.41
>>> reported("CCC(C)Oc1ccc(C(C)(C)C)cc1NC(=O)c1nnn(-c2cc(C)ccc2OC)c1C (centres unmarked)")
0.0076

1 = COc1ccc(OC)c(-n2nnc(S(=O)(=O)Nc3cccc(C(C)(C)C)c3)c2C)c1
2 = COc1ccc(OC)c(-n2nnc(N(S(=O)(=O)c3ccc(C(C)(C)C)cc3)S(=O)(=O)c3ccc(C(C)(C)C)cc3)c2C)c1
Higher IC50 between 1 and 2 ? API: response body contains the label of the selected item.
2
